Target: Aryl hydrocarbon receptor (Homo sapiens) (UniProt P35869)
Sequence (P35869 whole entry, looked up): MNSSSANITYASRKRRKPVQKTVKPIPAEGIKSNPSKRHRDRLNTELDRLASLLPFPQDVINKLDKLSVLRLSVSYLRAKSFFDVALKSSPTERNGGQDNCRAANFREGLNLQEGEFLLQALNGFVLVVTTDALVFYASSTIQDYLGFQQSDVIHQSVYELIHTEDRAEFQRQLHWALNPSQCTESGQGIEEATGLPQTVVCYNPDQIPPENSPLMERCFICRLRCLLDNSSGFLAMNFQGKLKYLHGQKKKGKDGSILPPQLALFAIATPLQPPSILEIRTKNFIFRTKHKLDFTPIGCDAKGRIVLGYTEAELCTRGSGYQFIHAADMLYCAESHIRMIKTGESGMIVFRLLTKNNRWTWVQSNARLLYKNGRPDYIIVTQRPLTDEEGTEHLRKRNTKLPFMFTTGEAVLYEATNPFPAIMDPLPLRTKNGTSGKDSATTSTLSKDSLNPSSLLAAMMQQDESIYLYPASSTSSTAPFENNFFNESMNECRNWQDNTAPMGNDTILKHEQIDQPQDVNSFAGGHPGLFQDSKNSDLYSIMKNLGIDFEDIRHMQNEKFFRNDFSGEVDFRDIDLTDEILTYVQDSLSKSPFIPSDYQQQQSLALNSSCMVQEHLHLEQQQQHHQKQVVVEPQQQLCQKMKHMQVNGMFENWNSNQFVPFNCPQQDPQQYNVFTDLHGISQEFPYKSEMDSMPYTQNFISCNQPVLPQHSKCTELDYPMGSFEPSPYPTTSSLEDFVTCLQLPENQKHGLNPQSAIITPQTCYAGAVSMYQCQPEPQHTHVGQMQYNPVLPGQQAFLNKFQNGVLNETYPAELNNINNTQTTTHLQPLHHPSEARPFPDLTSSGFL
Test: qHTS assay to identify small molecule that activate the aryl hydrocarbon receptor (AhR) signaling pathway (AID 743085); note: nearly all actives have a fitted effect of over 15% in size;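 for activation: HG2L7.5c1 human HepG2 liver cells with stably integrated DRE-driven firefly reporter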
Conditions: HepG2 AhR-luc (HG2L7.5c1), luciferase, 24 h; series mostly up to 70.3 µM
Inconclusive results are not listed. Calls of active or inactive are those of the source. Calls come from the whole dose curve; as a rule, active = well fitted activation curve with a large enough effect in the repeat runs; inconclusive = weak or mixed curves; inactive = no such curve, though single readings can be large or run the other way.
Pick from active, inactive when you respond.

>>> df
                                   compound  answer_label
0  C/C=C1\C(=O)C[C@H]2[C@@H]3CCC4=CC(=O)CC[C@]4(C)[C@H]3CC[C@]12C      inactive
1                    C=C(C)[C@H]1CC=C(C)CC1      inactive
2                         COc1ccc(COC=O)cc1      inactive
3  CCC(C)OC(=O)N1CCCCC1CCO (stereo not given)      inactive
4  Cc1cc(C)cc(OCC2CNC(=O)O2)c1 (stereo not given)      inactive
5                        CCO[Si](C)(OCC)OCC      inactive

IN: Status in this test for Cn1ccc2cc3c(cc21)CCN3C(=O)Nc1cccnc1 ?
OUT: active

IN: And for CCCCCCCCCCC1CO1 (stereo not given) ?
OUT: inactive

IN: And for Cc1cc(C)c(NC(=O)CN(CC(=O)O)CC(=O)O)c(C)c1Br ?
OUT: inactive

IN: And for CC1=CCC2C(C1)C2(C)C (stereo not given) ?
OUT: inactive

====

Target: Progesterone receptor (Homo sapiens) (UniProt P06401)
Sequence (P06401 whole entry, looked up): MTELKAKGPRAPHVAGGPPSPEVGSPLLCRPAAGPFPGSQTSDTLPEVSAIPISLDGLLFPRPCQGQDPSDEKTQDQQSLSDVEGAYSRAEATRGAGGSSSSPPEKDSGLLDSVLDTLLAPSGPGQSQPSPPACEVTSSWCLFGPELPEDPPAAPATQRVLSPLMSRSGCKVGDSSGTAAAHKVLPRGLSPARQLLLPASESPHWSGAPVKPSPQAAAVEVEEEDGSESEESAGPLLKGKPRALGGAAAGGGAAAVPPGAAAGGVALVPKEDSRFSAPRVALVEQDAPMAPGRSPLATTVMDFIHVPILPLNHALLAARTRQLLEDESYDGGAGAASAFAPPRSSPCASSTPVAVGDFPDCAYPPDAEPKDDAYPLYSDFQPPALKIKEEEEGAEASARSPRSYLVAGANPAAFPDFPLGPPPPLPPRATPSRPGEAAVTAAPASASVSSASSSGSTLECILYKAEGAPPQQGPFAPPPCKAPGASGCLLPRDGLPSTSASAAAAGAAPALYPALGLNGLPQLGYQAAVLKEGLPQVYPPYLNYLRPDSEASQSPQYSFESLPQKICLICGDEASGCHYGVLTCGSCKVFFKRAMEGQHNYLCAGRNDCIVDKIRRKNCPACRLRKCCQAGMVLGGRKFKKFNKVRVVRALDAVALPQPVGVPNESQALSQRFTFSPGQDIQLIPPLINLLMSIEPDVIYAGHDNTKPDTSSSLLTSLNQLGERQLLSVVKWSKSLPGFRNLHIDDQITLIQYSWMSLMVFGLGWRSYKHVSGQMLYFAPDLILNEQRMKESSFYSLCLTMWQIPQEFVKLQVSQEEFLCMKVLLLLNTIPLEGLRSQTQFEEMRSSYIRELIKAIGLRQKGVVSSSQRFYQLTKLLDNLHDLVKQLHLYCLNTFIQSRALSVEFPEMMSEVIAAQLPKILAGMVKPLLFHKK
Assay: qHTS assay to identify small molecule antagonists of the progesterone receptor (PR) signaling pathway (AID 1346795); note: potency is the fitted concentration of half-maximal effect
Settings: PR-UAS-bla HEK293T, beta-lactamase FRET ratio, 16 h; series mostly up to 92.4 µM
Results filed as inconclusive are left out. Active and inactive are the calls of the source. The call rests on the fitted dose curve; in most records, active means well fitted inhibition curve with a large enough effect in the signal ratio in the repeat runs (not every such curve was filed as active); inconclusive means weak or mixed curves; inactive means flat fitted curve, though single readings scatter; the % refers to the signal ratio.
recorded_metric: Potency

                                   molecule                             target_entity  reported_measurement
0          CCN(CC)S(=O)(=O)c1ccc(C(=O)O)cc1  Progesterone receptor (Homo sapiens) (UniProt P06401)              inactive
1            CCCC(C)CO (stereo unspecified)  Progesterone receptor (Homo sapiens) (UniProt P06401)              inactive
2  CCN1CCCC(OC(=O)C(c2ccccc2)c2ccccc2)C1 (stereo unspecified)  Progesterone receptor (Homo sapiens) (UniProt P06401)              inactive
3                            c1ccc2cnncc2c1  Progesterone receptor (Homo sapiens) (UniProt P06401)              inactive
4         O=C(O)c1ccccc1-c1ccc(C(F)(F)F)cc1  Progesterone receptor (Homo sapiens) (UniProt P06401)              inactive

Value sought for every listed molecule: Potency.
1. O=C(O)Cc1cc(I)c(Oc2cc(I)c(O)c(I)c2)c(I)c1
2. C(=C(c1ccccc1)c1ccccc1)c1ccccc1
3. C=C(C)[C@H]1CC=C(C)CC1

OUT:
1. 18.9 µM (active)
2. 12.2 µM (active)
3. inactive

Value sought for every listed molecule: Potency.
1. O=C(O)/C=C/c1ccc(Cn2ccnc2)cc1
2. CCCC(C)C(=O)O (stereo unspecified)
3. CC(=O)OC(C)(C)C

OUT:
inactive
inactive
inactive
